B1: Azoarcus group I ribozyme (parent)
chain: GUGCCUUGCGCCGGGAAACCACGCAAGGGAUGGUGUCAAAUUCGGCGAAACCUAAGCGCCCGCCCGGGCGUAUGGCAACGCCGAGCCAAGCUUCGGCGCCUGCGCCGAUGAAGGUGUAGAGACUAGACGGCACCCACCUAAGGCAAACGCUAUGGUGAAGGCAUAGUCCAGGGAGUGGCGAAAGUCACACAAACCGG

# Variants of: B1
# experiment: reverse-splicing fitness (ratio to wild type); higher = more active; in vitro selection; Mg2+ level not given
metric: reverse-splicing fitness
Respond numerically, and do not add a unit to the figure.

Here's what some known entries look like.
reverse-splicing fitness lookup needed for C82U A111C A120C A145U C150A U176A , thanks. 0.00905

reverse-splicing fitness for C82A A111G A145C C150U U176G ? 0.0154

Could you tell me which reverse-splicing fitness is on file for C82G A111C A120U A145U C150G C169A U176G ? 0.00276

Any idea what its reverse-splicing fitness is? The variant is A120C A145G C150G C169A U176C 0.0132

Further cases:
Given the variant C82A A111G A120C A145G C150G C169A , what is its reported reverse-splicing fitness? 0.00974

Query (variant): C82U A120C A145U U176A ; field requested: reverse-splicing fitness 0.0458

Look at this variant and give its reported reverse-splicing fitness. C82A A111C A120G A145C C169U 0.00846

# query: reverse-splicing fitness of entry C82U A111G A120C A145G U176C 0.0318
